Experimental System: T1, Human CD137 ECD (human)
T1 construct: entry includes C-terminal His-tag and biotin acceptor peptide; also called human CD137 extracellular domain; 4-1BB
T1 sequence (chain, as listed by the source limits assumed): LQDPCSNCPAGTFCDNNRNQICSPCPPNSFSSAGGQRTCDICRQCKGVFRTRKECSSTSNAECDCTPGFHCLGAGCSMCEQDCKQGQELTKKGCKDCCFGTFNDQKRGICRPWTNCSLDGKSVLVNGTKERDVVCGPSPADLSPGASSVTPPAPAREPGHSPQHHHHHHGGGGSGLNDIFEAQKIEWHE
Assay Overview: Biacore SPR, vs parent H183/L072
Lab note: cut-off is 0.1 fold. Strictly less in fold change of affinity is 1. Exactly 0.1 fold or more is -1.

Binder: H183/L072 VL S52K (antibody, name in Kabat numbering, V domains shown, Dual-Ig) VH: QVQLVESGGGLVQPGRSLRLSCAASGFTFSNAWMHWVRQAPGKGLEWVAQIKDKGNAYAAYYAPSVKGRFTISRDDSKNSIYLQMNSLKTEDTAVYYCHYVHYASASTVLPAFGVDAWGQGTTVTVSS VL: DIVMTQSPLSLPVTPGEPASISCQASQELVHMNRNTYLHWYQQKPGQAPRLLIYKVKNRFPGVPDRFSGSGSGTDFTLKISRVEAEDVGVYYCAQGTSVPFTFGQGTKLEIK
Label Class: -1

Binder: H183/L072 VL N30P (antibody, name in Kabat numbering, V domains shown, Dual-Ig) VH: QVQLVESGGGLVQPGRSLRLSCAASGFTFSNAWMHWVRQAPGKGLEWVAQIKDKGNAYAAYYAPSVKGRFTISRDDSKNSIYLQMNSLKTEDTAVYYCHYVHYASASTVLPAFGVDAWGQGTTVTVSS VL: DIVMTQSPLSLPVTPGEPASISCQASQELVHMNRPTYLHWYQQKPGQAPRLLIYKVSNRFPGVPDRFSGSGSGTDFTLKISRVEAEDVGVYYCAQGTSVPFTFGQGTKLEIK
Label Class: -1

Binder: H183/L072 VL P95G (antibody, name in Kabat numbering, V domains shown, Dual-Ig) VH: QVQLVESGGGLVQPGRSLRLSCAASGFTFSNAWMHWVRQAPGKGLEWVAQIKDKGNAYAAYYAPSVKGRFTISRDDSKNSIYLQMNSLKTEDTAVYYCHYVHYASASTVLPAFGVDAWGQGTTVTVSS VL: DIVMTQSPLSLPVTPGEPASISCQASQELVHMNRNTYLHWYQQKPGQAPRLLIYKVSNRFPGVPDRFSGSGSGTDFTLKISRVEAEDVGVYYCAQGTSVGFTFGQGTKLEIK
Label Class: 1

Binder: H183/L072 VL H27dM (antibody, name in Kabat numbering, V domains shown, Dual-Ig) VH: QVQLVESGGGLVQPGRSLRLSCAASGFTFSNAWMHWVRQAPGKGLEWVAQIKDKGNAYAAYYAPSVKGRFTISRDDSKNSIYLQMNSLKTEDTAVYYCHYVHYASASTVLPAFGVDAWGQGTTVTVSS VL: DIVMTQSPLSLPVTPGEPASISCQASQELVMMNRNTYLHWYQQKPGQAPRLLIYKVSNRFPGVPDRFSGSGSGTDFTLKISRVEAEDVGVYYCAQGTSVPFTFGQGTKLEIK
Label Class: -1

Binder: H183/L072 VL N53H (antibody, name in Kabat numbering, V domains shown, Dual-Ig) VH: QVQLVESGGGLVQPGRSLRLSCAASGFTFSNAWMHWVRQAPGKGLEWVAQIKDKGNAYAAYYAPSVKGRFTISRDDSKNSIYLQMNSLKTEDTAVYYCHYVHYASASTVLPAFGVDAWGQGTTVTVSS VL: DIVMTQSPLSLPVTPGEPASISCQASQELVHMNRNTYLHWYQQKPGQAPRLLIYKVSHRFPGVPDRFSGSGSGTDFTLKISRVEAEDVGVYYCAQGTSVPFTFGQGTKLEIK
Label Class: -1

Binder: H183/L072 VL S52R (antibody, name in Kabat numbering, V domains shown, Dual-Ig) VH: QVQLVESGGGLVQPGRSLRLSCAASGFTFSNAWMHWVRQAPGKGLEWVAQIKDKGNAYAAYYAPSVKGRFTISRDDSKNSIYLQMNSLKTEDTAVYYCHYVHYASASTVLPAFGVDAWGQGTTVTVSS VL: DIVMTQSPLSLPVTPGEPASISCQASQELVHMNRNTYLHWYQQKPGQAPRLLIYKVRNRFPGVPDRFSGSGSGTDFTLKISRVEAEDVGVYYCAQGTSVPFTFGQGTKLEIK
Label Class: -1

Binder: H183/L072 VL T92N (antibody, name in Kabat numbering, V domains shown, Dual-Ig) VH: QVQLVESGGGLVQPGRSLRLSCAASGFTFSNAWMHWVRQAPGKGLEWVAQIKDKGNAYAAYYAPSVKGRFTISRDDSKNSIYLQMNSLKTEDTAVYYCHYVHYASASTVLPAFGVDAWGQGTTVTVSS VL: DIVMTQSPLSLPVTPGEPASISCQASQELVHMNRNTYLHWYQQKPGQAPRLLIYKVSNRFPGVPDRFSGSGSGTDFTLKISRVEAEDVGVYYCAQGNSVPFTFGQGTKLEIK
Label Class: 1
